Tested on: KOPN-8
experiment notes: selective drug sensitivity score (sDSS, relative to normal bone marrow) (sDSS (score)); higher = more potent and effective on the cell line relative to normal bone marrow cells;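 also: ALL cell lines in 384-well plates, five doses spanning 10,000-fold, each plate scaled between vehicle and 100 µmol/L benzalkonium chloride controls, sDSS an adapted area-under-curve metric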
condition info: 72 h
selective drug sensitivity score vs 0: at or above is True, below is False.

Lookup: # bool: selective drug sensitivity score of O=C1CCC(N2C(=O)c3ccccc3C2=O)C(=O)N1 (configuration not stated) [Thalidomide] (top concentration 10000 nM) >= 0
Found: False

Lookup: Hi team, for CC(C)(C)Cn1c(N)nc2ccc(-c3[nH]c(C(C)(C)C)nc3-c3ccc(F)cc3)nc21 [Ralimetinib] (top concentration 10000 nM) , is the recorded selective drug sensitivity score at or above 0?
Found: True

Lookup: API: above_or_equal(metric=selective drug sensitivity score, cutoff=0) for item C[C@]1(O)C[C@@H](c2nc(-c3ccc4ccc(-c5ccccc5)nc4c3)c3c(N)nccn32)C1 [Linsitinib] (top concentration 10000 nM)
Found: False

Lookup: # bool: selective drug sensitivity score of O=C(NCc1ccncc1)C12CC3CC(C1)CC(c1ccc(Cl)cc1)(C3)C2 (top concentration 50000 nM) >= 0
Found: True

Lookup: Quick check: does COc1cc(C)c(/C=C/C(C)=C/C=C/C(C)=C/C(=O)O)c(C)c1C [Acitretin] (top concentration 10000 nM) have selective drug sensitivity score greater than or equal to 0?
Found: True

Lookup: Determine whether measured selective drug sensitivity score meets or exceeds 0 for CC1(C)CCC(c2ccc(Cl)cc2)=C(CN2CCN(c3ccc(C(=O)NS(=O)(=O)c4ccc(N[C@H](CCN5CCOCC5)CSc5ccccc5)c(S(=O)(=O)C(F)(F)F)c4)cc3)CC2)C1 [Navitoclax] (top concentration 10000 nM)
Found: True

Lookup: Is selective drug sensitivity score for CCN(CC)CCNC(=O)c1c(C)[nH]c(/C=C2\C(=O)Nc3ccc(F)cc32)c1C [Sunitinib] (top concentration 1000 nM) at or above 0?
Found: False

Lookup: Say whether CCS(=O)(=O)N1CCN(c2ccc(Nc3ncc(C(N)=O)c(NC4CC4)n3)cc2)CC1 [Cerdulatinib] (top concentration 10000 nM) shows selective drug sensitivity score of 0 or more.
Found: True

Lookup: // inclusive: selective drug sensitivity score at least 0? input: CCCCC(=O)OCC(=O)[C@]1(O)Cc2c(O)c3c(c(O)c2[C@@H](O[C@H]2C[C@H](NC(=O)C(F)(F)F)[C@H](O)[C@H](C)O2)C1)C(=O)c1c(OC)cccc1C3=O [Valrubicin] (top concentration 5000 nM)
Found: True

Lookup: Decide: selective drug sensitivity score of CONC(=O)c1ccccc1Nc1cc(Nc2cc(C)nn2C(C)C)ncc1Cl (top concentration 1000 nM) >= 0?
Found: True

Lookup: Answer whether selective drug sensitivity score of CC[C@@H]1[C@H](F)C(=O)N[C@@H]1COc1nccc2cc(C(N)=O)c(OC)cc12 (top concentration 10000 nM) is greater than or equal to 0.
Found: True

----------
Test system: SEM cells
experiment notes: selective drug sensitivity score (sDSS, relative to normal bone marrow) (sDSS (score)); higher = more potent and effective on the cell line relative to normal bone marrow cells
condition info: 72 h
Please provide measured selective drug sensitivity score for the entries that follow.
Answer with a number only.

Lookup: Consider the compound shown here: CC[C@@H]1[C@H](F)C(=O)N[C@@H]1COc1nccc2cc(C(N)=O)c(OC)cc12 (top concentration 10000 nM) What is its recorded selective drug sensitivity score?
Found: 1.48

Lookup: Recorded selective drug sensitivity score of CONC(=O)c1ccccc1Nc1cc(Nc2cc(C)nn2C(C)C)ncc1Cl (top concentration 1000 nM) , please.
Found: -0.94

Lookup: Please look up its selective drug sensitivity score: CC1(C)C(C(=O)Nc2ccc(S(=O)(=O)c3ccc(NC(=O)C4C(C)(C)C4(C)C)cc3)cc2)C1(C)C [BRD7116] (top concentration 10000 nM)
Found: -0.24

Lookup: Can you share its selective drug sensitivity score? I mean this compound: COc1cc2c(Nc3ccc(Cl)c(Cl)c3F)ncnc2cc1OC[C@@H]1C[C@@H]2CN(C)C[C@@H]2C1 [Tesevatinib] (top concentration 1000 nM)
Found: 1.44

Lookup: What value of measured selective drug sensitivity score is listed for CO[C@@H]1[C@H](N(C)C(=O)c2ccccc2)C[C@H]2O[C@]1(C)n1c3ccccc3c3c4c(c5c6ccccc6n2c5c31)C(=O)NC4 [Midostaurin] (top concentration 10000 nM) ?
Found: 19.3

Lookup: Quick one: selective drug sensitivity score for CC(=O)c1c(C)c2cnc(Nc3ccc(N4CCNCC4)cn3)nc2n(C2CCCC2)c1=O [Palbociclib] (top concentration 10000 nM) ?
Found: 4.98

Every entry's value here was drawn from the supplement of paper PMC8967900.
